Hey, just so you know, these numbers are from patent US20260200942A1.

pIC50: −log10 of the molar value.
Lab note: pIC50 readings collected with PARP2 (Homo sapiens, UniProt Q9UGN5) for the following molecules.
Sequence (Q9UGN5 whole entry): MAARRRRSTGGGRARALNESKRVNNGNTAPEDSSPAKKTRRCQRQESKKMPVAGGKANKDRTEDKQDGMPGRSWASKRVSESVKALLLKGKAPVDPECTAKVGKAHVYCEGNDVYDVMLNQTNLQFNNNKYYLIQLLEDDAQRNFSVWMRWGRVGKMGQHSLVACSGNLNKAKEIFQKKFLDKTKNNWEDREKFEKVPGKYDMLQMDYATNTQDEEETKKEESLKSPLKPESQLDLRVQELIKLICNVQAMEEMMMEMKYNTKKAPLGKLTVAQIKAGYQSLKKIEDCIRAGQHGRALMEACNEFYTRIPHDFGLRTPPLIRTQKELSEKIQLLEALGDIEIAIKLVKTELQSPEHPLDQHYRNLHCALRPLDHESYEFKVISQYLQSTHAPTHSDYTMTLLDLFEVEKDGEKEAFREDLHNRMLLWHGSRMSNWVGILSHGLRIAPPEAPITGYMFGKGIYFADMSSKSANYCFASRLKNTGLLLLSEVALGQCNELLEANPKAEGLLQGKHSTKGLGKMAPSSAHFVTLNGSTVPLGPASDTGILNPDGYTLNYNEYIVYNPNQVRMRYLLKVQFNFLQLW

Take a look at these entries with their results.
CC(C)(N[C@H]1C[C@H](C(=O)N2CCN(c3ncc(C(F)(F)F)cc3C(N)=O)CC2)C1)c1cc(C(F)(F)F)c(=O)[nH]n1 [Embodiment 60]: 6.00 to 7.00
CC(=O)Nc1cc(C(F)(F)F)cnc1N1CCN(C(=O)[C@H]2C[C@H](NC(C)(C)c3cc(C(F)(F)F)c(=O)[nH]n3)C2)CC1 [Embodiment 61]: 6.00 to 7.00
CC(C)(N[C@H]1C[C@H](C(=O)N2CCN(c3ncc(C(F)(F)F)c4cc[nH]c34)CC2)C1)c1cc(C(F)(F)F)c(=O)[nH]n1 [Embodiment 64]: 6.00 to 7.00

Next, consider the following molecule.
IN: Return pIC50 (reported value) for this molecule: NC(=O)c1cc(C(F)(F)F)cnc1N1CCN(C(=O)[C@H]2C[C@H](NCc3cc(C(F)(F)F)c(=O)[nH]n3)C2)CC1 [Embodiment 62]
OUT: 7.00 to 8.00
